The reported numbers originate from patent US20070179143A1.

tested on: MCF7; experiment: Cytotoxicity test to cancer cell lines (SRB method), MCF7; settings: read-out: Cytotoxicity ED50 MCF-7, MCF-7, 48 hours
measured.quantity: pEC50
// pEC50 is dimensionless: -log10 of concentration (M)

Use these answered entries as a reference point.
COc1cc2c(c(OC)c1OC)-c1ccc(SC)c(=O)cc1[C@@H](NC(=O)c1cc(CO[N+](=O)[O-])cs1)CC2 10.00
COc1c(OC(C)C)cc2c(c1OC)-c1ccc(SC)c(=O)cc1[C@@H](NC(=O)c1cccc(CO[N+](=O)[O-])c1)CC2 8.64
COc1cc2c(c(OC)c1OC)-c1ccc(SC)c(=O)cc1[C@@H](NC(=O)c1cc(F)cc(CO[N+](=O)[O-])c1)CC2 10.52
CCOc1cc2c(c(OC)c1OC)-c1ccc(SC)c(=O)cc1[C@@H](NC(=O)c1cccc(CO[N+](=O)[O-])c1F)CC2 11.00
COc1cc2c(c(OC)c1OC)-c1ccc(SC)c(=O)cc1[C@@H](NC(=O)c1ccccc1SN=O)CC2 7.61
COc1cc2c(c(OC)c1OC)-c1ccc(SC)c(=O)cc1[C@@H](NC(=O)c1cc(CO[N+](=O)[O-])cc(CO[N+](=O)[O-])c1)CC2 8.09
COc1cc2c(c(OC)c1OC)-c1ccc(SC)c(=O)cc1[C@@H](NC(=O)Cc1cccc(CO[N+](=O)[O-])c1)CC2 8.48
COc1c(OC(C)C)cc2c(c1OC)-c1ccc(SC)c(=O)cc1[C@@H](NC(=O)c1cccc(CO[N+](=O)[O-])c1F)CC2 9.89

Qu. For the molecule shown here, COc1cc2c(c(OC)c1OC)-c1ccc(SC)c(=O)cc1[C@@H](NC(=O)c1cc(F)cc(CSN=O)c1)CC2 , give the reported pEC50.
Ans. 8.30

Qu. For the molecule shown here, COc1cc2c(c(OC)c1OC)-c1ccc(SC)c(=O)cc1[C@@H](NC(=O)c1cc(CO[N+](=O)[O-])ccc1F)CC2 , give the reported pEC50.
Ans. 10.10

Qu. For the molecule shown here, CCOc1cc2c(c(OC)c1OC)-c1ccc(SC)c(=O)cc1[C@@H](NC(=O)c1cc(F)cc(CO[N+](=O)[O-])c1)CC2 , give the reported pEC50.
Ans. 10.70

Qu. For the molecule shown here, COc1c(OC2CCCC2)cc2c(c1OC)-c1ccc(SC)c(=O)cc1[C@@H](NC(=O)c1cccc(CO[N+](=O)[O-])c1F)CC2 , give the reported pEC50.
Ans. 7.41

----------
tested on: SK-MEL-2; test: Cytotoxicity test to cancer cell lines (SRB method), SK-MEL-2; assay type: cell-based; conditions: Homo sapiens, SK-MEL-2, 48 h, read-out: Cytotoxicity ED50 SK-MEL-2
# if measured EC50 < 20 nM: rule met  # else: rule not met

Record excerpt, results attached:
compound	assigned.class
COc1cc2c(c(OC)c1OC)-c1ccc(SC)c(=O)cc1[C@@H](N(C)C(=O)c1cc(F)cc(CO[N+](=O)[O-])c1)CC2 [Example 42]	rule not met
COc1c(OC(C)C)cc2c(c1OC)-c1ccc(SC)c(=O)cc1[C@@H](NC(=O)c1cc(F)cc(CO[N+](=O)[O-])c1)CC2 [Example 14]	rule not met

Qu. For COc1c(OC2CCCC2)cc2c(c1OC)-c1ccc(SC)c(=O)cc1[C@@H](NC(=O)c1cc(F)cc(CO[N+](=O)[O-])c1)CC2 [Example 15] , is the recorded EC50 below the cut-off of 20 nM?
Ans. rule not met

Qu. For COc1cc2c(c(OC)c1OC)-c1ccc(SC)c(=O)cc1[C@@H](NC(=O)c1cccc(CO[N+](=O)[O-])n1)CC2 [Example 5] , is the recorded EC50 below the cut-off of 20 nM?
Ans. rule met

Qu. For COc1cccc2c1C(=O)c1c(O)c3c(c(O)c1C2=O)C[C@@](O)(C(=O)CO)C[C@@H]3O[C@H]1C[C@H](N)[C@H](O)[C@H](C)O1 [Doxorubicin, reference compound] , is the recorded EC50 below the cut-off of 20 nM?
Ans. rule met

Qu. For COc1cc2c(c(OC)c1OC)-c1ccc(SC)c(=O)cc1[C@@H](NC(=O)c1cccc(COC(=O)CCCO[N+](=O)[O-])n1)CC2 [Example 28] , is the recorded EC50 below the cut-off of 20 nM?
Ans. rule met
